target: Alpha-1A adrenergic receptor (Homo sapiens, UniProt P35348); assay type: functional, cell-based; further: assay procedure not described here
Sequence (P35348 whole entry): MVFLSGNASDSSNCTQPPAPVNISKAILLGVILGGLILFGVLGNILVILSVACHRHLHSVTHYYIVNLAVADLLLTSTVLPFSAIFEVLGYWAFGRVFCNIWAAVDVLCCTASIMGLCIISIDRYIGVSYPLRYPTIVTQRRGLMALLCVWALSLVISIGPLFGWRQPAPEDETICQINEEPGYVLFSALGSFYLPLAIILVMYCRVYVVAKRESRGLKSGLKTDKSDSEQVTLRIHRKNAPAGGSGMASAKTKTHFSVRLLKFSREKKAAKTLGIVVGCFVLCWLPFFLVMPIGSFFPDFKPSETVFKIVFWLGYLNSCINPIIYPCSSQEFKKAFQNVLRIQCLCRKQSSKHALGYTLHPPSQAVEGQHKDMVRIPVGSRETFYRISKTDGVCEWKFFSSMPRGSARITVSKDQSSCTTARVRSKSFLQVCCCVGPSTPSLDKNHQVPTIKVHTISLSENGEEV
readout_name: AC50

compound=CC(C)NNC(=O)c1ccncc1 system_tested="Alpha-1A adrenergic receptor (Homo sapiens, UniProt P35348)" readout_name=AC50 result_value="> 30 µM"
compound=O=C(O)Cc1cn(-c2ccccc2)nc1-c1ccc(Cl)cc1 system_tested="Alpha-1A adrenergic receptor (Homo sapiens, UniProt P35348)" readout_name=AC50 result_value="> 30 µM"
compound=C[C@]12CCC(=O)C=C1CC[C@@H]1[C@@H]2CC[C@@]2(C)[C@H]1CC[C@]2(C)O system_tested="Alpha-1A adrenergic receptor (Homo sapiens, UniProt P35348)" readout_name=AC50 result_value="27 µM"
compound=CCCCCN(C)CCC(O)(P(=O)(O)O)P(=O)(O)O system_tested="Alpha-1A adrenergic receptor (Homo sapiens, UniProt P35348)" readout_name=AC50 result_value="> 30 µM"

Next up:
Exercise: Consider the compound CCCCCCC(C)(C)c1cc(O)c2c(c1)OC(C)(C)C1CCC(=O)CC21 (stereo not given) and give its measured AC50.
Key: > 30 µM

====

Target: Alpha-2A adrenergic receptor (Homo sapiens); further: assay procedure not described here
Sequence (P08913 whole entry): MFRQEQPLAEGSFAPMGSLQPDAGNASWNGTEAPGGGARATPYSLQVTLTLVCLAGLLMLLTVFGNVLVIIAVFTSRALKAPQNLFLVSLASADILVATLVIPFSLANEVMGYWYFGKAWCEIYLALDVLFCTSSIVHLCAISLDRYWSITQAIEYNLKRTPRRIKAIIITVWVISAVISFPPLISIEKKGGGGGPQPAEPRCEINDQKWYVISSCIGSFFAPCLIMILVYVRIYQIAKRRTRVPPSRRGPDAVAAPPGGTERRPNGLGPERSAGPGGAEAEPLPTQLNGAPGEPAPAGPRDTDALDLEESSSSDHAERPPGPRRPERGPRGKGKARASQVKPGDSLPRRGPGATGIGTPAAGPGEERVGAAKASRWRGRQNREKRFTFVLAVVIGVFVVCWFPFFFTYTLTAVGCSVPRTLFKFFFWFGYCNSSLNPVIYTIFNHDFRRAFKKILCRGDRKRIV
Type: functional, cell-based
readout_name: AC50

compound=CCC[C@@H]1C[C@@H](C(=O)N[C@@H]([C@H]2O[C@H](SC)[C@H](O)[C@@H](O)[C@H]2O)[C@H](C)Cl)N(C)C1 readout_name=AC50 result_value="> 10 µM"
compound=CC(=O)c1ccc2c(c1)N(CCCN1CCN(CCO)CC1)c1ccccc1S2 readout_name=AC50 result_value="> 30 µM"
compound="NS(=O)(=O)c1cc2c(cc1Cl)NC(CC1CCCC1)NS2(=O)=O (centres undefined) [CYCLOPENTHIAZIDE]" readout_name=AC50 result_value="> 30 µM"

Next up:
Exercise: Consider the compound CCCCOc1cc(C(=O)NCCN(CC)CC)c2ccccc2n1 and give its measured AC50.
Key: > 10 µM

====

molecular target: D(1A) dopamine receptor (Homo sapiens); further: assay procedure not described here
Sequence (P21728 whole entry): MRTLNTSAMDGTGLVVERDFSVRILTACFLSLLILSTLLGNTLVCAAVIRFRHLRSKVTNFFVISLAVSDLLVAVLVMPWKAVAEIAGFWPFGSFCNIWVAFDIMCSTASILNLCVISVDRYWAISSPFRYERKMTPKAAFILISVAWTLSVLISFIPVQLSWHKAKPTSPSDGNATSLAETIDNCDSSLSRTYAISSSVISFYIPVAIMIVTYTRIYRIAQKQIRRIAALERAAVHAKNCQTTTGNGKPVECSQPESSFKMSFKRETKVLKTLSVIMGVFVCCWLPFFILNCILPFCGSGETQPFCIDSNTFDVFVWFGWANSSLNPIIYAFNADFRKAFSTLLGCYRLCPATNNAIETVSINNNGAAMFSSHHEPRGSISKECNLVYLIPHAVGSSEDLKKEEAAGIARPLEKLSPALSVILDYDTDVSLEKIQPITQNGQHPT
readout_name: AC50

For orientation, consider the following solved cases.
molecule="CCC(=O)O[C@H]1[C@H](O[C@@H]2[C@@H](C)[C@H](O[C@H]3C[C@@](C)(OC)[C@@H](O)[C@H](C)O3)[C@@H](C)C(=O)O[C@H](CC)[C@@](C)(O)[C@H](O)[C@@H](C)C(=O)[C@H](C)C[C@@]2(C)O)O[C@H](C)C[C@@H]1N(C)C [ERYTHROMYCIN PROPIONATE]" result_value="17 µM"
molecule=Cn1cc[nH]c1=S result_value="> 30 µM"

Exercise: Consider the molecule COCC1=C(C(=O)OC(C)OC(=O)OC(C)C)N2C(=O)[C@@H](NC(=O)/C(=N\OC)c3csc(N)n3)[C@H]2SC1 (stereo not given in full) and give its measured AC50.
Key: > 30 µM

Exercise: Same read-out for Nc1ccc(/N=N/c2ccccc2)c(N)n1 ?
Key: > 30 µM

Exercise: Same read-out for COC(=O)C1=C(C)NC(C)=C(C(=O)OC)C1c1ccccc1[N+](=O)[O-] ?
Key: > 30 µM
